Test: Plasma cannabinoid concentrations and pharmacokinetics during 14-day industrial hemp feeding
Assay type: in vivo, Holstein cattle
Details: Holstein, bovine, plasma, po, 5.5 mg/kg, median; IH fed 14 days, target dose 5.5 mg/kg CBDA, n = 8; read-out: MRT0-∞
measured attribute: MRT inf (days)
Your answer is read as days, so omit the unit and give the number.

Query block: Quick one: MRT inf for C=C(C)[C@@H]1CCC(C)=C[C@H]1c1c(O)cc(CCCCC)c(C(=O)O)c1O ?
Result block: 32.1

###

Assay: Plasma cannabinoid concentrations and pharmacokinetics during 14-day industrial hemp feeding
Type: in vivo, Holstein cattle
Settings: Holstein, bovine, plasma, po, 5.5 mg/kg, geometric mean; after the initial IH feeding, target dose 5.5 mg/kg CBDA, n = 8
measured attribute: Tmax (h)
Respond with the bare value in h.

Query block: Item under review: C=C(C)[C@@H]1CCC(C)=C[C@H]1c1c(O)cc(CCCCC)c(C(=O)O)c1O [CBDA, cannabidiolic acid] . Reported Tmax?
Result block: 16.7
